Origin of values: paper PMC7886051

- Substrate: CC(C)=CCC/C(C)=C/CC/C(C)=C/CO[P@@](=O)(O)OP(=O)(O)O
- procedure summary: steady-state kinetics of purified enzyme (details in supplement)
- Type: biochemical, Streptomyces coelicolor
- recorded conditions: Mg2+-dependent enzyme; assay conditions in supplement
Measured Km by item
Provide the reading as a plain figure in µM.

protein	measurement unit	Km
Gd11olS (germacradien-11-ol synthase; N-terminal domain of geosmin synthase) (Streptomyces coelicolor A3(2); H320A) (protein, N-terminal domain, residues 1-366 of geosmin synthase; codon-optimized synthetic gene in pET28a, expressed in E. coli, purified to homogeneity; tag details in supplement) MTQQPFQLPHFYLPHPARLNPHLDEARAHSTTWAREMGMLEGSGVWEQSDLEAHDYGLLCAYTHPDCDGPALSLITDWYVWVFFFDDHFLEKYKRSQDRLAGKAHLDRLPLFMPLDDAAGMPEPRNPVEAGLADLWTRTVPAMSADWRRRFAVATEHLLNESMWELSNINEGRVANPVEYIEMRRKVGGAPWSAGLVEYATAEVPAAVAGTRPLRVLMETFSDAVHLRNDLFSYQREVEDEGELSNGVLVLETFFGCTTQEAADLVNDVLTSRLHQFEHTAFTEVPAVALEKGLTPLEVAAVGAYTKGLQDWQSGGHEWAMRSSRYMNKGERPLAGWQALTGPGTSAADVGALLADAVAQRARSYT	µM	1.12

We next turn to a different protein, shown below.
Query block: Consider the protein shown here: Gd11olS (germacradien-11-ol synthase; N-terminal domain of geosmin synthase) (Streptomyces coelicolor A3(2); W312A) (protein, N-terminal domain, residues 1-366 of geosmin synthase; codon-optimized synthetic gene in pET28a, expressed in E. coli, purified to homogeneity; tag details in supplement) MTQQPFQLPHFYLPHPARLNPHLDEARAHSTTWAREMGMLEGSGVWEQSDLEAHDYGLLCAYTHPDCDGPALSLITDWYVWVFFFDDHFLEKYKRSQDRLAGKAHLDRLPLFMPLDDAAGMPEPRNPVEAGLADLWTRTVPAMSADWRRRFAVATEHLLNESMWELSNINEGRVANPVEYIEMRRKVGGAPWSAGLVEYATAEVPAAVAGTRPLRVLMETFSDAVHLRNDLFSYQREVEDEGELSNGVLVLETFFGCTTQEAADLVNDVLTSRLHQFEHTAFTEVPAVALEKGLTPLEVAAVGAYTKGLQDAQSGGHEWHMRSSRYMNKGERPLAGWQALTGPGTSAADVGALLADAVAQRARSYT What is its recorded Km?
Result block: 0.4
